Exercise: state measured GI50 for each of the molecules provided.
System: CCRF-CEM
Test: NCI tumour cell line growth inhibition, 48 h
Calls of active or inactive are those of the source. Cut-off read from the data, not from the text of the source: active = GI50 up to about 1.1 µM and inactive = higher. Where a SMILES comes first, the peptide text is derived from it. [ ]: non-standard residue; d: D form. The star is where a group is joined. NMeAc5c = CNC1(C(=O)O)CCCC1; Boc = CC(C)(C)OC(=O)*; OBn = c1ccc(CO*)cc1

Query: // returns reported GI50 for input CC(=O)OC1CC[C@@]2(C)C(CC(OC3OC(CO)C(O)C(O)C3O)[C@]3(C)C2CCC24CC23CC[C@H]4C(C)CC(O)[C@@H](O)C(C)(C)O)C1(C)C (some centres undefined)
Response: 11.4 µM (inactive)

Query: Would you kindly repeat that for Cc1ccc(S(=O)(=O)NNC(C[N+](=O)[O-])c2ccccc2)cc1 (centres undefined) ?
Response: > 100 µM (inactive)

Query: What about COc1ccc(-n2c(N)c(C#N)c(C#N)c2-c2ccccc2)cc1 ?
Response: > 100 µM (inactive)

Query: Okay, and CN(c1ccccc1)c1nc(=[N+]2CCCC2)ss1.[O-][Cl+3]([O-])([O-])[O-] ?
Response: > 100 µM (inactive)

Query: Moving on to the next molecule: CN(C(=O)C(Cc1ccccc1)NC(=O)OC(C)(C)C)C1(C(=O)NC(Cc2ccccc2)C(=O)OCc2ccccc2)CCCC1 (stereo not drawn) (Boc-Phe-[NMeAc5c]-Phe-OBn; configuration not given here)
Response: 39.7 µM (inactive)

Query: Ok, now CC1NS(=O)(=O)N(C)C1=O (centres undefined)
Response: > 100 µM (inactive)

Query: Please do the same for Cc1ccccc1NC(=O)C1C(=O)N(c2ccccc2C)C(=O)/C1=N\NC(N)=S (centres undefined) as well.
Response: > 100 µM (inactive)

Query: Lookup N#COc1ccc(Oc2ccc(OC#N)cc2)cc1
Response: 22.5 µM (inactive)

Query: Input Nc1ccn(C2CCC(CO)O2)c(=O)n1 (centres undefined)
Response: 46.5 µM (inactive)

* * *

Tested on: CCRF-CEM
Assay: NCI tumour cell line growth inhibition, 48 h
Activity calls are given as the source filed them. Cut-off read from the data, not from the text of the source: active = GI50 up to about 1.1 µM and inactive = higher.
The reply should name one outcome from true (1) for active, false (0) for inactive

Query: // outcome(item) with item = CC(=O)OC[C@]1(C)CCCC2(C)C1CCC1C=C(C)[C@H]3CCC12C3 (stereo partly drawn)
Response: false (0)

Query: Note, next up: C=CCSC1=N/C(=C\c2ccc(OC)cc2)C(=O)N1CC=C
Response: false (0)

Query: What do you get for CCc1cccc(CC)c1NC(=O)C1=CNC(C)=C(C(=O)Nc2c(CC)cccc2CC)C1c1ccc(O)c(OC)c1 (stereo not drawn) ?
Response: false (0)

Query: // same read-out, input: CCCOC1OC(CS(=O)(=O)O)C(OC(C)=O)C(OC(C)=O)C1OC(C)=O (stereo not drawn)
Response: false (0)

Query: Another: OC12CCC3(O)c4ccccc4C3C1c1ccccc12 (stereo not drawn)
Response: false (0)

Query: Field entry: O=C1CN=C(c2ccccc2)c2ccncc2N1
Response: false (0)

Query: Likewise for O=C1C2CC=CCC2C(=O)N1n1c(Cc2ccc(Cl)cc2)n[nH]c1=O (stereo not drawn) ?
Response: false (0)

Query: Now the molecule CC1(C)[C@@H]2CC[C@@]1(C)[C@@H]1O[C@@H](O[C@@H](CN)c3cc(Cl)c(OCc4ccccc4)c(OCc4ccccc4)c3)C[C@H]21
Response: true (1)

Query: Next record, please: CN(C)CCNc1nc2c(no[n+]2[O-])c2ccccc12.[O-][Cl+3]([O-])([O-])O
Response: false (0)

Query: Request: COc1cc(Oc2c(C)c(Cl)c(OC)c(Cl)c2OC)c2c(c1Cl)COC2=O
Response: false (0)

Query: Repeat with C=C1C(=O)OC2/C=C(/CO)C3(O)CC(O)C(C)(CC(OC(=O)/C(C)=C/C)C12)O3 (stereo not drawn)
Response: false (0)

Query: Quick one: O=C1c2ccccc2NC(=S)[C@@H]2CCCN12
Response: false (0)

Query: Further, for Oc1c(/N=N\c2ccccc2)c2cccc3ccc4cccc1c4c32 ?
Response: false (0)

Query: Next: Cc1ccc(-c2c(C#N)c(-c3ccc([N+](=O)[O-])cc3)c(C#N)c(=O)n2NS(=O)(=O)c2ccc(C)cc2)cc1
Response: false (0)

Query: Now the same for COC(=O)NC(C(F)(F)F)(C(F)(F)F)P1(=O)OCCCO1
Response: false (0)

Query: What do you have for CCC1(O)CC(OC2CC(N(C)C)C(OC3CC(O)C(OC4CCC(=O)C(C)O4)C(C)O3)C(C)O2)c2c(cc3c(c2O)C(=O)c2c(O)ccc(O)c2C3=O)C1C(=O)OC (stereo not drawn) ?
Response: true (1)

Query: Now give it for OC(c1cc(-c2ccc(Cl)cc2)nc2ccccc12)C1CCCCN1 (stereo not drawn) too.
Response: true (1)

Query: What about this molecule? O=C(O)CSc1ccc(N=C=S)cc1
Response: false (0)

Query: Next entry: CN(C)CCN1C(=O)CC[C@@]2(C)C1=CC[C@@H]1[C@@H]2CC[C@@]2(C)[C@H]1CC[C@]2(C)O
Response: false (0)

Query: Now the same for CNC(c1ccncc1)C(NC)c1ccncc1 (stereo not drawn)
Response: false (0)

Query: Follow-up entry: O=C(N/N=C\c1cccc2ccccc12)Nc1ccccc1
Response: false (0)

Query: Ok, now COc1cc(CNc2cnc3cc(N)ccc3n2)cc(OC)c1OC
Response: false (0)

Query: Same again, this time with COc1cccc(OC)c1C(=O)OCc1ccccc1
Response: false (0)

Query: Request: NS(=O)(=O)c1ccc(NNc2c3ccccc3nc3ccccc23)cc1
Response: false (0)

Query: // query: FC(F)(F)c1ccc2c(-c3cc[nH]c3)ccnc2c1
Response: false (0)

Query: Another molecule to look at: CC(=O)N1C(NN(C)C)CCN1c1ccccc1 (stereo not drawn)
Response: false (0)

Query: Here is the next molecule: Cc1cccc(NC2=NCCO2)c1Cl
Response: false (0)

Query: Another molecule to look at: CCOc1ccccc1NC(=O)CCc1nnc2s/c(=C\CCc3ccccc3)c(=O)n12
Response: false (0)

Query: Also, COc1cc(Oc2nc3cc(F)c(F)cc3nc2-c2ccccc2)cc(OC)c1OC please.
Response: false (0)

Query: Now this one: CCN(CC)CCSc1c(C(C)=O)c(=O)n(-c2ccccc2)c(=S)n1-c1ccccc1
Response: true (1)

Query: Also check O=c1c2cccnc2ncn1CCN1CCCCC1
Response: false (0)

Query: // same read-out, input: CCC/N=C(/NC(=O)c1ccc(Cl)cc1)SC
Response: false (0)

Query: Then this molecule: O=[N+]([O-])C(=C(Nc1ccccc1)Nc1ccccc1)/C(Cl)=C(\Cl)[N+](=O)[O-]
Response: false (0)

Query: Request: CN1N=C(c2ccncc2)OC1c1cccc(C(F)(F)F)c1 (stereo not drawn)
Response: false (0)

Query: Cool, now COc1cc2ccc3c4cc(OC)c(OCc5ccccc5)cc4cnc3c2cc1OC
Response: false (0)

Query: Consider next the molecule Nc1ccc(CCSSCCc2ccc(N)cc2)cc1 in the same way.
Response: false (0)

Query: Now the same for CNC(=O)C1CCC(=O)N1CN(C(C)=O)c1ccccc1 (stereo not drawn)
Response: true (1)

Query: Okay, and CC(C)(NO)/C(=N\O)c1ccccc1 ?
Response: false (0)

Query: Input O=C1c2cccc(O)c2C(=O)c2cccc(O)c21
Response: false (0)

Query: What about this molecule? O=C1C2=C(CC3=C(C2)CS(=O)(=O)C3)C(=O)C2=C1CC1=C(C2)CS(=O)(=O)C1
Response: false (0)

Query: Also need Nc1nc(O)c2c(ncn2CCO)n1 , thanks.
Response: false (0)

Query: Subsequent entry: COc1ccc(OCC(=N/NC(=O)c2ccncc2)/N=C/c2ccncc2)cc1
Response: false (0)

Query: Please give the result for CCN(CC(=O)O)CC(=O)O too.
Response: false (0)

* * *

Test system: DMS-273
Assay: NCI tumour cell line growth inhibition, 48 h
Calls of active or inactive are those of the source. No stated cut-off is given here; in the data, active = GI50 up to about 1.1 µM and inactive = higher.
Give GI50 for every item shown.

Query: Param item = O=C1CCCCCCCCCCC1CN1CCCCC1 (stereo unspecified) ; retrieve measured GI50.
Response: > 100 µM (inactive)

Query: // query: CC(C(=O)c1ccc(O)cc1)C1(O)C(=O)Nc2c(Cl)cc(Cl)cc21 (stereo unspecified)
Response: 70.5 µM (inactive)

Query: What do you get for O=C1CCC(c2ccc(Cl)cc2)=NN1c1nsc2ccccc12 ?
Response: 25.6 µM (inactive)

Query: Consider next the molecule O=C1C=CC(S(=O)(=O)C2=C/C(=C/Nc3ccc(Cl)cc3)C(=O)C=C2)=C/C1=C/Nc1ccc(Cl)cc1 in the same way.
Response: > 100 µM (inactive)

Query: Then what about the molecule COc1ccc(C(=O)Cc2ccc(Br)cc2)cc1OC ?
Response: > 100 µM (inactive)

Query: What do you get for CC(=O)c1c2c(cc3c1CC1(C3)Cc3cc4c(c(C(=O)O)c3C1)CCC4)CCC2 (stereo unspecified) ?
Response: 35.6 µM (inactive)

Query: Again, but for Nc1ccn(C2CCC(CO)O2)c(=O)n1 (stereo unspecified)
Response: > 100 µM (inactive)

Query: Try this molecule next: FC(F)(F)C12C34C=CC5(CCC6(C=CC1(CC3)O6)C52C(F)(F)F)O4 (stereo unspecified)
Response: > 100 µM (inactive)

Query: Now give it for Cc1ccc(NC(=O)CSc2nnc(Cc3ccccc3)o2)cc1 too.
Response: > 100 µM (inactive)

Query: Consider next the molecule CC(C)NC(=O)OCc1c2c(n(C)c1COC(=O)NC(C)C)-c1ccccc1CC2 in the same way.
Response: 13.9 µM (inactive)

Query: Entry C#CCOCn1cnc2c(Sc3c([N+](=O)[O-])ncn3C)ncnc21 please
Response: > 100 µM (inactive)

Query: What about this molecule? CCOC(=O)CN.CCOC(=O)Nc1ccc(S(=O)(=O)OC)cc1.CCOC(=O)Nc1ccc(S(=O)(=O)OC)cc1
Response: > 50 µM (inactive)

Query: Field entry: Cc1cc(C)nc(NS(=O)(=O)c2ccc(NC(=O)COC(=O)c3cccc4c(=O)c5ccccc5[nH]c34)cc2)n1
Response: 41.2 µM (inactive)

Query: What would you report for CCOC(=O)C(Cc1ccc2ccccc2c1)(Cc1ccc2ccccc2c1)C(C)=O ?
Response: 5.38 µM (inactive)

Query: Would you mind doing CC1NS(=O)(=O)N(C)C1=O (stereo unspecified) as well?
Response: > 100 µM (inactive)

Query: Note, next up: COC(=O)C1(c2ccc(OC)cc2)NC(c2ccccc2)C2C(=O)N(c3ccc(OC)cc3)C(=O)C21 (stereo unspecified)
Response: > 100 µM (inactive)

Query: Ok, now Cc1ccc2c(=O)c3ccccc3sc2c1
Response: > 100 µM (inactive)

Query: How about this molecule: O=C1CC(c2c(-c3ccccc3)[nH]c3ccccc23)C(=O)N1 (stereo unspecified)
Response: > 100 µM (inactive)

Query: Now consider c1ccc2c(c1)[nH]c1c2ncc2[nH]c3ccccc3c21 and answer again.
Response: 2.45 µM (inactive)

Query: Query CN(c1ccccc1)c1nc(=[N+]2CCCC2)ss1.[O-][Cl+3]([O-])([O-])[O-] next
Response: 6.56 µM (inactive)

Query: Would you kindly repeat that for O=S1(=O)C[C@@H](O)[C@H](O)CS1 ?
Response: > 100 µM (inactive)

Query: Try the molecule CCc1nc2c(O)ccc(O)c2nc1C
Response: 19.9 µM (inactive)

Query: Another: N#Cc1c2nc3ccccc3nc2n2ccccc12
Response: > 100 µM (inactive)

Query: Similarly, CC(Oc1ccc(OCC2CCCCC2)cc1)C(=O)NCc1ccco1 (stereo unspecified) ?
Response: 25.5 µM (inactive)

Query: Try the molecule CC(=O)Oc1cc(Cl)c(OC(C)=O)c2c(OC(C)=O)c(C)c(O[Si](C)(C)C(C)(C)C)cc12
Response: 5.47 µM (inactive)

Query: Ok, now O=c1c2cccnc2ncn1CCN1CCCCC1
Response: > 100 µM (inactive)

Query: Proceed to O=C(Cn1ccnc1[N+](=O)[O-])c1ccc(F)cc1
Response: > 100 µM (inactive)

Query: Here is the next molecule: Clc1ccc(Cl)c2[s+]snc12
Response: 27 µM (inactive)

Query: What do you have for Cc1ccc(S(=O)(=O)NC(C)C(=O)O)cc1 (stereo unspecified) ?
Response: > 100 µM (inactive)

Query: Try this molecule next: CCCCCCCCCCCCCCCCSS(C)(=O)=O
Response: 27 µM (inactive)

Query: Follow-up item: CN(C)C(=N)NC(=S)N(C)C
Response: > 100 µM (inactive)

Query: Next: CC12OC3CC(O1)C1(C=O)C4CCC5(C)C(c6ccc(=O)oc6)CCC5(O)C4CCC1(C3)O2 (stereo unspecified)
Response: 0.0519 µM (active)

Query: For CCCCCCCCCOCC(COP(=O)([O-])OCC[N+](C)(C)C)OC (stereo unspecified) then?
Response: > 100 µM (inactive)

Query: Note, next up: NC1=NS(=O)(=O)Nc2nc(-c3ccccc3)c(-c3ccccc3)nc21
Response: > 100 µM (inactive)

Query: And for CCNc1nnc(CSc2nc(-c3ccccc3)c(-c3ccccc3)[nH]2)s1 ?
Response: 22.2 µM (inactive)

Query: // repeat for CC(CCCOC(c1ccccc1)(c1ccccc1)c1ccccc1)OC(=O)Nc1cc([N+](=O)[O-])cc([N+](=O)[O-])c1 (stereo unspecified) and report
Response: 33.7 µM (inactive)
